biological target: T1, non-activatable Factor X (FXn) (Homo sapiens (Human), UniProt P00742 41-488, single biotin on the C-terminal BioTag); experiment: BLI; class meaning: paragraph 285
T1 construct: also called BIIB-FX-015
Measure: binding result

>  <Binder>
BIIB-12-903 (antibody, V domains shown, IgG) VH: QVQLVQSGAEVKKPGASVKVSCKASGYTFTSYYMHWVRQAPGQGLEWMGIINPSGGSTSYAQKFQGRVTMTRDTSTSTVYMELSSLRSEDTAVYYCARDLGYTAGAFGYWGQGTLVTVSS VL: EIVLTQSPATLSLSPGERATLSCRASQSVSSYLAWYQQKPGQAPRLLIYDASNRATGIPARFSGSGSGTDFTLTISSLEPEDFAVYYCQQRANWPPTFGGGTKVEIK

>  <Reported measurement>
binds

$$$$
>  <Binder>
BIIB-12-910 (antibody, V domains shown, IgG) VH: QVQLQESGPGLVKPSQTLSLTCTVSGGSISSGGYYWSWIRQHPGKGLEWIGSIYYSGSTYYNPSLKSRVTISVDTSKNQFSLKLSSVTAADTAVYYCARGPLQRQVRYFDLWGRGTLVTVSS VL: DIQMTQSPSSLSASVGDRVTITCRASQSISSYLNWYQQKPGKAPKLLIYAASSLQSGVPSRFSGSGSGTDFTLTISSLQPEDFATYYCQQLSHTPFTFGGGTKVEIK

>  <Reported measurement>
binds

$$$$
>  <Binder>
BIIB-12-895 (antibody, V domains shown, IgG) VH: QVQLVQSGAEVKKPGASVKVSCKASGYTFTSYYMHWVRQAPGQGLEWMGIINPSGGSTSYAQKFQGRVTMTRDTSTSTVYMELSSLRSEDTAVYYCARGGGYKSRGIDYWGQGTLVTVSS VL: DIQMTQSPSSVSASVGDRVTITCRASQGISSWLAWYQQKPGKAPKLLIYAASSLQSGVPSRFSGSGSGTDFTLTISSLQPEDFATYYCQQASSFPFTFGGGTKVEI

>  <Reported measurement>
binds

$$$$
